Where do these numbers come from? They come from patent US20240417463A1.

# Target Or System: T1, hCD47-ECD/Fc protein (Sinobiological) (human, UniProt Q08722 19-139, biotinylated in the Octet assay, sites not stated)
# T1 construct: extracellular domain; Bought protein; also called human CD47-Fc antigen; recombinant hCD47-ECD/Fc; not shown: Fc part of the bought fusion protein
# T1 sequence (Q08722 19-139 limits assumed): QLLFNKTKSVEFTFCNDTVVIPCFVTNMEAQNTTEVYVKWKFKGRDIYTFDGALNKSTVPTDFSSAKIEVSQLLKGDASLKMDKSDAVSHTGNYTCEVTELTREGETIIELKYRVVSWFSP
# Protocol Description: ELISA, coated hCD47-ECD/Fc
EC50 by entry:
Endpoint Label: EC50 (nM)

binder="TY25033 (antibody, V domains shown) VH: QVQLVQSGAEVKKPGSSVKVSCKASGFTFTSYAIHWVRQAPGQGLEWIGIINPNFGSTNYAQKFQGRVTITADKSTSTAYMELSSLRSEDTAVYYCARYYYGASFDVWGQGTLVTVSS VL: DIQLTQSPSSLSASVGDRVTITCKSGQSLLHGDVKTYLYWYQQKPGKAPKLLIYDASNRATGIPSRFSGSGSGTDFTLTISSLQPEDFATYYCQQYASWPPGFTFGQGTKVEIKR" result_value=6.11
binder="TY25029 (antibody, V domains shown) VH: EVQLVESGGGLVQPGGSLRLSCAASGYTFSNYWIHWVRQAPGKGLEWIGIIYPSSGSTKYAQKFQGRVTISRDNSKNTLYLQLNSLRAEDTAVYYCARDRAPGSSGYYDGFDYWGQGTLVTVSS VL: DIQLTQSPSSLSASVGDRVTITCRASQSVDFHGISFLHWYQQKPGKAPKLLIYDASSLESGVPSRFSGSGSGTDFTLTISSLQPEDFATYYCHQRSTTPLTFGQGTKVEIKR" result_value=0.58
